Data credit: PubChem BioAssay AID248

Below is a list of entries, each paired with its recorded T/C value.
Test system: L1210 leukemia ip in BDF1 mice, survival T/C
Assay: NCI In Vivo Anticancer Drug Screen. Data for tumor model L1210 Leukemia (intraperitoneal) in B6D2F1 (BDF1) mice
Settings: endpoint: mean survival time; dose: 50.0 mg/kg/injection; schedule: Q01DX009 (ip); vehicle: saline with Tween-80; higher = longer survival
Inconclusive results and toxic doses are left out.

Some entries whose results are on file:
{"compound": "c1ccc(CNCCCNCc2ccccn2)nc1", "T/C": "93 % of control"}
{"compound": "C=CCCCCCCCCC(=O)N(CCOC)CCOC", "T/C": "100 % of control"}

Which value of T/C has been reported for CC(C)(C)OC(=O)N1CCCC1C(=O)Oc1ccc([N+](=O)[O-])cc1 (configuration not stated) in the records?
88 % of control

Okay, and O=C(O)/C=C\C(=O)NNC(=O)/C=C\C(=O)O ?
101 % of control

Ok, now CCOC(CN1CCCCC1)c1ccccc1 (configuration not stated)
100 % of control

Query c1ccc(N2CCN(c3ccccn3)CC2)nc1 next
92 % of control

Please give the result for COC(=O)NC1c2ccccc2CCC1I (configuration not stated) too.
94 % of control

* * *

Test system: L1210 leukemia ip in BDF1 mice, survival T/C
Assay: NCI In Vivo Anticancer Drug Screen. Data for tumor model L1210 Leukemia (intraperitoneal) in B6D2F1 (BDF1) mice
Details: endpoint: mean survival time; dose: 200.0 mg/kg/injection; schedule: Q01DX009 (ip); vehicle: saline; higher = longer survival
Inconclusive results and toxic doses are left out.
Entries annotated with measured T/C

{"compound": "O=C1CN(Br)C(=O)N1Br", "T/C": "107 % of control"}
{"compound": "COc1ccc(C(C#N)CC(=O)c2ccc3c(c2)OCO3)cc1OC (stereo not given)", "T/C": "104 % of control"}
{"compound": "COc1ccc(OC=O)cc1OC", "T/C": "101 % of control"}
{"compound": "OCC(O)C1CCCCN1 (stereo not given)", "T/C": "100 % of control"}

Fill in the blank: the reported T/C of Cc1cc(CN)c(C)cc1CN is ____.
86 % of control

Then CN(C)C=C(S(C)(=O)=O)S(C)(=O)=O ?
109 % of control

// repeat for CN1OC(C#N)(C#N)C(C#N)(C#N)C1c1ccccc1 (stereo not given) and report
106 % of control

Can you handle CC(=O)OCc1ccc(Cl)cc1 next?
102 % of control

Let us now turn to CC(C)(C)NC(=O)Oc1ccc(Br)cc1Br
98 % of control

# iterate: CCC1(C)NC(=O)NC1=O (stereo not given)
111 % of control

Item: O=S(=O)(c1ccc(Cl)cc1)N1CCN(S(=O)(=O)c2ccc(Cl)cc2)C1
94 % of control

Try O=c1[nH]cnc2c1ncn2C1OC(CF)C(O)C1O (stereo not given) next.
101 % of control

Subsequent entry: CCCC(=O)NO
104 % of control

Moving on to COC(=O)C(=[N+]=[N-])C(F)(F)F
102 % of control

Now the same for Cc1cccc(CNCC(=O)O)c1
92 % of control

Next compound up: NCc1ccc([N+](=O)[O-])cc1
110 % of control

// same read-out, input: CCN(CC)CC(=O)NC(CCN(C)C)(c1cccc2ccccc12)C(C)C (stereo not given)
100 % of control

// repeat for CCN(CC)C(=O)c1ccncc1 and report
97 % of control

For NCc1ccc(Cl)cc1Cl then?
108 % of control

Now give it for Nc1ccccc1CCCC(=O)O too.
90 % of control

For CC(=O)OCC[N+](C)(C)CCCCC[N+](C)(C)CCOC(C)=O then?
113 % of control

Subsequent entry: O=C(NCCc1cnc[nH]1)C(F)(F)F
100 % of control

Please give the result for CN(C)CCCNc1ccc(O)c2c1C(=O)c1ccccc1C2=O too.
106 % of control

Also COC(=O)C(N)CCl (stereo not given) ?
100 % of control

Consider next the compound N#CCCN1CCOCC1 in the same way.
97 % of control

* * *

Tested on: L1210 leukemia ip in BDF1 mice, survival T/C
Assay: NCI In Vivo Anticancer Drug Screen. Data for tumor model L1210 Leukemia (intraperitoneal) in B6D2F1 (BDF1) mice
Details: endpoint: mean survival time; dose: 75.0 mg/kg/injection; schedule: Q01DX001 (ip); vehicle: saline; higher = longer survival
Inconclusive results and toxic doses are left out.
The entries below come with measured T/C values attached.

Here are 3 molecules together with their reported answers.
{"molecule": "CCC1(Cc2ccccc2)C(=O)NC(=S)N(C)C1=O (stereo not drawn)", "value": "106 % of control"}
{"molecule": "COc1ccc2c3c1OC1C(O)CCC4C(C2)N(C)CCC341 (stereo not drawn)", "value": "92 % of control"}
{"molecule": "CCC(CCl)NC1CCCCC1 (stereo not drawn)", "value": "106 % of control"}

T/C lookup needed for CC(C)=C(Br)Br , thanks.
94 % of control

Same for O=S1(=O)C2CCCC1(Cl)CCC2
107 % of control

Please answer likewise for CN(C)C1CCCC/C=C\C(=O)NC1 (stereo not drawn)
109 % of control

Now this one: CN1C2CCCCC1C1CCCCC2N1C
105 % of control

Note, next up: Cc1c[n+](Cc2ccccc2)cc(C)n1
105 % of control

* * *

Test system: L1210 leukemia ip in BDF1 mice, survival T/C
Test: NCI In Vivo Anticancer Drug Screen. Data for tumor model L1210 Leukemia (intraperitoneal) in B6D2F1 (BDF1) mice
Settings: endpoint: mean survival time; dose: 200.0 mg/kg/injection; schedule: Q04DX002 (ip); vehicle: Klucel (hydroxypropylcellulose) (HPC); higher = longer survival
Inconclusive results and toxic doses are left out.
T/C values for the compounds below.

{"compound": "CCc1ccccc1NC(=O)Nc1ccc(C(=O)O)c(O)c1", "T/C": "102 % of control"}
{"compound": "COC1=C(c2ccccc2)P(=O)(Cc2ccccc2)C(C)C1 (configuration not stated)", "T/C": "96 % of control"}
{"compound": "COc1ccc(C(=O)N/N=C/c2ccc(NC(C)=O)cc2)cc1", "T/C": "96 % of control"}

Under L1210 leukemia ip in BDF1 mice, survival T/C: T/C value of O=S1(=O)CC2(C1)OCCO2 ?
94 % of control

Further, for c1ccc2c(c1)ccc1cc3cc4cc5c(ccc6ccccc65)cc4cc3cc12 ?
90 % of control

Continue with NC(CSS(=O)(=O)O)=NCc1cccnc1
105 % of control

Cool, now CCN(CC)C(=O)Nc1cccc(N)c1
101 % of control

Also need COC(=O)COc1ccc2ccccc2c1Cl , thanks.
99 % of control

Next entry: O=C1CCCCC1CO (configuration not stated)
100 % of control

COC(=O)CSc1nc2ccccc2[nH]1 ?
100 % of control

Next compound: COc1cc2c(c(OC)c1OC)CCc1cnoc1-2
112 % of control

Another: CCn1[nH]cc2c3nnc(-c4ccccc4)c3cnc21
92 % of control

Please answer likewise for O=C(c1ccc(N2CC=C(c3ccccc3)CC2)cc1)C1CC1
95 % of control

// same read-out, input: CC(=O)OC(C)C(=O)C1=C2CCCN2CCc2cc3c(cc21)OCO3 (configuration not stated)
103 % of control

Then this compound: CCN(CC)Cc1cc(Nc2c3ccc(Cl)cc3nc3ccc(OC)cc23)ccc1O
112 % of control

Param item: CSc1ccc(OC(=O)Nc2cccc3ccccc23)cc1
104 % of control

And for Nc1ccc(S(=O)(=O)Nc2ncccn2)cc1 ?
92 % of control

How about this compound: CCCS(=O)(=O)N1CCC(C)CC1
97 % of control

Would you mind doing COC(=O)C(Cc1ccccc1)NC(=O)C(COC1OC(COC(C)=O)C(OC(C)=O)C(OC(C)=O)C1NC(C)=O)NC(=O)OCc1ccccc1 (configuration not stated) as well?
101 % of control

Same lookup for O=C(N=Nc1c(O)[nH]c2ccc(Br)cc12)c1ccco1 , please.
95 % of control

Same question, O=C(Nc1cc(Cl)ccc1Cl)OCCCl this time
102 % of control

# repeat for CCCCCS(=O)(=O)N1CCCC1
103 % of control

# iterate: C=CCCCCCCCCC(=O)N/N=C/c1ccc(NC(C)=O)cc1
114 % of control

For C=CCCCCCCCCC(=O)N/N=C/c1ccccc1OC then?
104 % of control

And what about the compound CN1C(=O)CCN(CCN2CCC(=O)N(C)C2=S)C1=S ?
103 % of control

Would you kindly repeat that for O=C(O)c1cc(F)ccc1F ?
108 % of control

Record: O=C1CCCCCCCCCCCCCCCO1
93 % of control
